tested on: Odoribacter splanchnicus; assay: growth AUC relative to DMSO control (median of replicates) (fraction); higher = more growth (less inhibition), active = hit call of the paper; details: 20 µM; 24 h
growth AUC of 1 or higher: TRUE. Under 1: FALSE.

Use these answered entries as a reference point.
compound=N#Cc1c(Cl)c(Cl)c(Cl)c(C#N)c1Cl category_label=FALSE
compound=C[N+]1(C)CCCCC1.[Cl-] category_label=FALSE
compound="COCc1cnc(C2=NC(C)(C(C)C)C(=O)N2)c(C(=O)O)c1 (stereo not given)" category_label=TRUE
compound=CC(C)(C)c1cc([N+](=O)[O-])cc([N+](=O)[O-])c1O category_label=FALSE
compound="Cc1c(F)c(F)c(COC(=O)[C@@H]2[C@H](/C=C(\\Cl)C(F)(F)F)C2(C)C)c(F)c1F (mixture of isomers)" category_label=TRUE
compound=CCS(=O)(=O)c1cccnc1S(=O)(=O)NC(=O)Nc1nc(OC)cc(OC)n1 category_label=FALSE

Now consider a different compound.
Assess whether reported growth AUC for Cc1cc(Cl)ccc1OCC(=O)O sits at 1 or higher.
TRUE
